Test system: MOLT-4 leukemia
run description: NCI tumour cell line growth inhibition, 48 h
Listing of entries alongside the reported TGI.
quantity kind: TGI

{"molecule": "O=C1/C(=C\\c2ccc([N+](=O)[O-])cc2)N(S(=O)(=O)c2ccccc2)c2ncccc21", "target": "MOLT-4 leukemia", "observed": "13.5 µM"}
{"molecule": "COc1ccc2c(c1)NC1=C(C(=O)OC1)C2c1cc(OC)c(OC)c(OC)c1 (stereo not given)", "target": "MOLT-4 leukemia", "observed": "> 100 µM"}
{"molecule": "CC(C)CCNC(=O)c1ccc(CNC(=O)/C=C/c2cccc(Oc3ccccc3)c2)cc1", "target": "MOLT-4 leukemia", "observed": "> 100 µM"}
{"molecule": "N#C/C(=C/c1cccc(Oc2ccccc2)c1)c1ccccc1", "target": "MOLT-4 leukemia", "observed": "> 100 µM"}
{"molecule": "O=C(O)CCC1CCc2cccc(O)c2C1=O (stereo not given)", "target": "MOLT-4 leukemia", "observed": "> 100 µM"}
{"molecule": "CC1=C2C(O)C(C(C)C(=O)N(C)C)CCC2(C)C=CC1=O (stereo not given)", "target": "MOLT-4 leukemia", "observed": "> 100 µM"}
{"molecule": "O=C(O)CCCc1ccc2ccc3ccccc3c2c1", "target": "MOLT-4 leukemia", "observed": "> 100 µM"}
{"molecule": "CN(c1ccc(NC(=O)Nc2c(Cl)cccc2Cl)cc1)c1ccnc(Nc2cccc(CS(C)(=O)=O)c2)n1", "target": "MOLT-4 leukemia", "observed": "> 25 µM"}
{"molecule": "O=c1[nH]c2cc(C(F)(F)F)ccc2nc1C(F)(F)F", "target": "MOLT-4 leukemia", "observed": "> 100 µM"}
{"molecule": "Nc1cc([N+](=O)[O-])ccc1C(=O)N1CCC[C@H]1CO", "target": "MOLT-4 leukemia", "observed": "> 100 µM"}
{"molecule": "CCN1C[C@]2(C)CC[C@H](O)C34C1C(C[C@@H]32)[C@@]1(O)CC[C@H]2C[C@@H]4[C@@H]1[C@H]2O", "target": "MOLT-4 leukemia", "observed": "> 100 µM"}
{"molecule": "C=C(CCOC)CCC1CCCCC(CN(C)C)C1=O (stereo not given)", "target": "MOLT-4 leukemia", "observed": "> 100 µM"}
{"molecule": "CCOC(=O)[CH-]C(=O)C12CC3CC(CC(C3)C1)C2.CCOC(=O)[CH-]C(=O)C12CC3CC(CC(C3)C1)C2.CC[O-].CC[O-].[Ti+4]", "target": "MOLT-4 leukemia", "observed": "> 100 µM"}
{"molecule": "N#C[S-].[La+3].c1cnc2c(c1)ccc1cccnc12.c1cnc2c(c1)ccc1cccnc12.c1cnc2c(c1)ccc1cccnc12", "target": "MOLT-4 leukemia", "observed": "6.55 µM"}
{"molecule": "CS(=O)(=O)CCNCc1coc(-c2ccc3ncnc(Nc4ccc(OCc5ccccc5)cc4)c3c2)c1", "target": "MOLT-4 leukemia", "observed": "16.3 µM"}
{"molecule": "CCCCCCNCCc1cnc[nH]1", "target": "MOLT-4 leukemia", "observed": "> 100 µM"}
{"molecule": "CSC(SC)(C(=O)O)c1cc(-c2c(Cl)cccc2Cl)no1", "target": "MOLT-4 leukemia", "observed": "> 100 µM"}
{"molecule": "Cc1ccc2c(ccc(/C=C/c3ccc(O)c4ncccc34)[n+]2C)c1", "target": "MOLT-4 leukemia", "observed": "> 82.2 µM"}
{"molecule": "CN(C)/C=C/C(=CC=[N+](C)C)/C=C/N(C)C", "target": "MOLT-4 leukemia", "observed": "> 100 µM"}
{"molecule": "CCN1CCCc2cc3c(C(F)(F)F)cc(=O)oc3cc21", "target": "MOLT-4 leukemia", "observed": "> 100 µM"}
{"molecule": "Nc1ccccc1CCN1CCN(CCCc2ccccc2)CC1", "target": "MOLT-4 leukemia", "observed": "> 100 µM"}
{"molecule": "Nn1c(C23CC4CC(CC(C4)C2)C3)n[nH]c1=S", "target": "MOLT-4 leukemia", "observed": "> 100 µM"}
{"molecule": "Nc1ncnc2c1ncn2C1C=C(CO)C(O)C1O (stereo not given)", "target": "MOLT-4 leukemia", "observed": "30.9 µM"}
{"molecule": "O=C1CS(=O)(=O)C(c2cccc(Oc3ccccc3)c2)N1c1ccc(Cl)cc1 (stereo not given)", "target": "MOLT-4 leukemia", "observed": "62.7 µM"}
{"molecule": "O=[N+]([O-])c1ccc(CSc2nncc3[nH]cnc23)cc1", "target": "MOLT-4 leukemia", "observed": "> 100 µM"}
